Origin of measurements: ChEMBL document CHEMBL5113400

# ASSAYED SYSTEM: Bcr/Abl fusion protein (Homo sapiens, UniProt P00519, T315I)
# METHOD DESCRIPTION: Inhibition of Bcr-Abl T315I mutant (unknown origin) incubated for 1 hr in presence of ATP by ADP-Glo kinase assay
We label by threshold. Values of IC50 strictly beneath 100 nM are Condition met. Values of 100 nM and up are Condition not met.

API: query returns whether the compound falls strictly under 100 nM in IC50. Query: `C=CC(=O)Nc1ccc(-c2cn([C@@H]3CN[C@H](C(=O)Nc4ccc(Cl)c(C(F)(F)F)c4)C3)nn2)cn1`
Condition not met

Entry to check: `Nc1n[nH]c2cc(-c3cn([C@@H]4CN[C@H](C(=O)Nc5ccc(Cl)cc5Cl)C4)nn3)ccc12`
Condition not met

Thanks! And `Nc1nc2ccc(-c3cn([C@@H]4CN[C@H](C(=O)Nc5ccc(Cl)cc5Cl)C4)nn3)nc2s1` ?
Condition not met

Another compound to check: `CC(C)(C)OC(=O)N1C[C@@H](n2cc(-c3ccc4c(N)n[nH]c4c3)nn2)C[C@H]1C(=O)Nc1ccc(Cl)cc1Cl`
Condition not met

Queued: `O=C(Nc1nc2ccc(-c3cn([C@@H]4CN[C@H](C(=O)Nc5ccc(Br)cc5)C4)nn3)nc2s1)C1CC1`
Condition met

Next entry: `CC(C)(C)OC(=O)N1C[C@@H](n2cc(-c3ccc4c(N)n[nH]c4c3)nn2)C[C@H]1C(=O)Nc1ccc(Cl)c(C(F)(F)F)c1`
Condition not met

How about `CC(=O)Nc1nc2ccc(-c3cn([C@@H]4CN[C@H](C(=O)Nc5ccc(Cl)c(C(F)(F)F)c5)C4)nn3)nc2s1` ?
Condition met

----------
# ASSAYED SYSTEM: Bcr/Abl fusion protein (Homo sapiens, UniProt P00519, T315I)
# METHOD DESCRIPTION: Inhibition of Bcr-Abl T315I mutant (unknown origin) incubated for 1 hr in presence of ATP by ADP-Glo kinase assay
Please respond with reported IC50 for every item in the list.
Quick note: give the figure in nM, leave out the unit.

I have this molecule here, `O=C(Nc1nc2ccc(-c3cn([C@@H]4CN[C@H](C(=O)Nc5ccc(Cl)cc5Cl)C4)nn3)nc2s1)C1CC1` , and I need its recorded IC50.
190

Try this molecule too: `CC(C)(C)OC(=O)N1C[C@@H](n2cc(-c3ccc(N)nc3)nn2)C[C@H]1C(=O)Nc1ccc(Cl)c(C(F)(F)F)c1`
125

Entry to check: `CC(=O)Nc1nc2ccc(-c3cn([C@@H]4CN[C@H](C(=O)Nc5ccc(Cl)cc5Cl)C4)nn3)nc2s1`
388

Now this one: `Nc1nc2ccc(-c3cn([C@@H]4CN[C@H](C(=O)Nc5ccc(F)c(F)c5)C4)nn3)nc2s1`
1590

Okay, and `CC(=O)Nc1n[nH]c2cc(-c3cn([C@@H]4CN[C@H](C(=O)Nc5ccc(Cl)c(C(F)(F)F)c5)C4)nn3)ccc12` ?
121

Same lookup for `CC(=O)Nc1nc2ccc(-c3cn([C@@H]4CN[C@H](C(=O)Nc5ccc(Br)cc5)C4)nn3)nc2s1` , please.
169

Can you handle `CC(=O)Nc1n[nH]c2cc(-c3cn([C@@H]4CN[C@H](C(=O)Nc5ccc(Cl)cc5Cl)C4)nn3)ccc12` next?
135

Check `O=C(NC1CC1)c1cncc(-c2cn([C@@H]3CN[C@H](C(=O)Nc4ccc(Cl)c(C(F)(F)F)c4)C3)nn2)c1` too.
31.5

----------
# ASSAYED SYSTEM: Bcr/Abl fusion protein (Homo sapiens, UniProt P00519, T315I)
# METHOD DESCRIPTION: Inhibition of Bcr-Abl T315I mutant (unknown origin) incubated for 1 hr in presence of ATP by ADP-Glo kinase assay
Binary call on IC50 with cut-off 200 nM: strictly below means Condition met, and equality or higher means Condition not met.

Please check: IC50 for `CC(=O)Nc1ccc(-c2cn([C@@H]3CN[C@H](C(=O)Nc4ccc(Cl)c(C(F)(F)F)c4)C3)nn2)cn1` , strictly under 200 nM or not?
Condition met

Input `O=C(Nc1nc2ccc(-c3cn([C@@H]4CN[C@H](C(=O)Nc5ccc(Cl)c(C(F)(F)F)c5)C4)nn3)nc2s1)C1CC1`
Condition met

Same again, this time with `Nc1n[nH]c2cc(-c3cn([C@@H]4CN[C@H](C(=O)Nc5ccc(Br)cc5)C4)nn3)ccc12`
Condition not met

Query `Nc1n[nH]c2cc(-c3cn([C@@H]4CN[C@H](C(=O)Nc5ccc(Cl)c(C(F)(F)F)c5)C4)nn3)ccc12` next
Condition met

Entry `CC(C)(C)OC(=O)N1C[C@@H](n2cc(-c3ccc4nc(N)sc4n3)nn2)C[C@H]1C(=O)Nc1ccc(F)c(F)c1` please
Condition not met

----------
# Tested on: BaF3
# METHOD DESCRIPTION: Antiproliferative activity against mouse BaF3 cells assessed as inhibition of cell growth incubated for 72 hrs by CellTiter-Glo luminescent assay
# Format: functional, cell-based
# SETTINGS: BaF3, 72 h
METRIC: IC50

Name the recorded IC50 for `O=C(Nc1nc2ccc(-c3cn([C@@H]4CN[C@H](C(=O)Nc5ccc(Cl)cc5Cl)C4)nn3)nc2s1)C1CC1` .
> 20 µM

Entry `Cc1ccc(NC(=O)c2ccc(CN3CCN(C)CC3)cc2)cc1Nc1nccc(-c2cccnc2)n1` please
10 µM

Same thing, different compound: `CS(=O)(=O)Nc1ccc(-c2cn([C@@H]3CN[C@H](C(=O)Nc4ccc(Cl)c(C(F)(F)F)c4)C3)nn2)cn1`
> 20 µM

Moving on to the next compound: `O=C(Nc1n[nH]c2cc(-c3cn([C@@H]4CN[C@H](C(=O)Nc5ccc(Cl)c(C(F)(F)F)c5)C4)nn3)ccc12)C1CC1`
> 20 µM
